Recorded pIC50, one value per entry.
biological target: protein-protein interaction between Kras and SOS1 (biotin-tagged human Kras loaded with GDP, His-tagged human SOS1) (Homo sapiens (Human), UniProt P01116, G12D); assay: Protein-protein interaction inhibition between Kras and SOS1 (KrasG12D-SOS PPI) using AlphaScreen; assay type: biochemical; details: AlphaScreen; biotin-tagged human Kras loaded with GDP, His-tagged human SOS1; read-out: KRAS G12D-SOS PPI IC50
Bridge positions count the residues as written; N and C are the ends. Square brackets hold non-standard residues; d marks the D form. Peptide text beside a SMILES is read from it. * marks the point of attachment. hPhe(3,5-F2-4-CF3) = N[C@@H](CCc1cc(F)c(C(F)(F)F)c(F)c1)C(=O)O; hPhe(3-Cl-4-CF3) = N[C@@H](CCc1ccc(C(F)(F)F)c(Cl)c1)C(=O)O; NMeGly(cBu) = CN[C@H](C(=O)O)C1CCC1; NMeCha = CN[C@@H](CC1CCCCC1)C(=O)O; Hyp = O=C(O)[C@@H]1C[C@@H](O)CN1; NMeChg = CN[C@H](C(=O)O)C1CCCCC1; NMeD = CN[C@@H](CC(=O)O)C(=O)O; NMeV = CN[C@H](C(=O)O)C(C)C; NMeA = CN[C@@H](C)C(=O)O; Piperidide = C1CCN(*)CC1; Pyrrolidide = C1CCN(*)C1; dNMeA = CN[C@H](C)C(=O)O; Ac5c = NC1(C(=O)O)CCCC1; Aze = O=C(O)[C@@H]1CCN1; Sar = CNCC(=O)O
Lab note: report pIC50 as minus log10 of the concentration in molar units, number only.

CC[C@H](C)[C@@H]1NC(=O)[C@H](C)N(C)C(=O)C[C@@H](C(=O)N2CCCCC2)N(C)C(=O)[C@H](C(C)C)N(C)C(=O)C2(CCCC2)NC(=O)[C@@H]2CCCN2C(=O)[C@H](CCc2ccc(C(F)(F)F)c(Cl)c2)NC(=O)[C@@H](C)N(C)C(=O)[C@H](CC2CCCCC2)N(C)C(=O)[C@@H]2CCN2C(=O)CN(C)C1=O [Compound 115] ([NMeA]I[Sar][Aze][NMeCha][dNMeA][hPhe(3-Cl-4-CF3)]P[Ac5c][NMeV][NMeD]-Piperidide; lactam N-11)	8.22

Please find the next compound below.
Task: Given the entry CCO[C@@H]1C[C@H]2C(=O)NC3(CCCC3)C(=O)N(C)[C@@H](C3CCCCC3)C(=O)N(C)[C@H](C(=O)N3CCCC3)CC(=O)N(C)[C@@H](C3CCC3)C(=O)N[C@@H]([C@@H](C)CC)C(=O)N(C)CC(=O)N(C)CC(=O)N(C)[C@@H](CC3CCCCC3)C(=O)N(C)CC(=O)N[C@@H](CCc3cc(F)c(C(F)(F)F)c(F)c3)C(=O)N2C1 [Compound 1144] ([NMeGly(cBu)]I[Sar][Sar][NMeCha][Sar][hPhe(3,5-F2-4-CF3)][Hyp](Et)[Ac5c][NMeChg][NMeD]-Pyrrolidide; lactam N-11) , report its measured pIC50.
Result: 9.31

###

biological target: protein-protein interaction between Kras and SOS1 (biotin-tagged human Kras loaded with GDP, His-tagged human SOS1) (Homo sapiens (Human), UniProt P01116, G12D); experiment: Protein-protein interaction inhibition between Kras and SOS1 (KrasG12D-SOS PPI) using AlphaScreen; format: biochemical; conditions: AlphaScreen; biotin-tagged human Kras loaded with GDP, His-tagged human SOS1; read-out: KRAS G12D-SOS PPI IC50
Bridge positions count the residues as written; N and C are the ends. Square brackets hold non-standard residues; d marks the D form. Peptide text beside a SMILES is read from it. hPhe(3-Cl-4-CF3) = N[C@@H](CCc1ccc(C(F)(F)F)c(Cl)c1)C(=O)O; NEtPhe(2-Cl) = CCN[C@@H](Cc1ccccc1Cl)C(=O)O; NMePhe(4-Me) = CN[C@@H](Cc1ccc(C)cc1)C(=O)O; NMeCha = CN[C@@H](CC1CCCCC1)C(=O)O; NMeI = CC[C@H](C)[C@H](NC)C(=O)O; NMeD = CN[C@@H](CC(=O)O)C(=O)O; NMeL = CN[C@@H](CC(C)C)C(=O)O; NMeV = CN[C@H](C(=O)O)C(C)C; d(β3hA) = C[C@@H](N)CC(=O)O; NMeA = CN[C@@H](C)C(=O)O; Ac5c = NC1(C(=O)O)CCCC1; Aze = O=C(O)[C@@H]1CCN1; Sar = CNCC(=O)O
Recorded IC50, one value per entry.
Note: unit µM is implicit; provide only the numeric part.

CC[C@H](C)[C@@H]1NC(=O)[C@H](CC(C)C)N(C)C(=O)C[C@@H](C)NC(=O)[C@H](C(C)C)N(C)C(=O)C2(CCCC2)NC(=O)[C@@H]2CCCN2C(=O)[C@H](CCc2ccc(C(F)(F)F)c(Cl)c2)NC(=O)CN(C)C(=O)[C@H](CC2CCCCC2)N(C)C(=O)[C@@H]2CCN2C(=O)CN(C)C1=O [Compound 663] (cyclo([Ac5c][NMeV][d(β3hA)][NMeL]I[Sar][Aze][NMeCha][Sar][hPhe(3-Cl-4-CF3)]P))	0.016

Please find the next compound below.
Task: Given the entry CC[C@H](C)[C@@H]1NC(=O)[C@H](C)N(C)C(=O)C[C@@H](C(=O)N(C)C)N(C)C(=O)[C@H]([C@@H](C)CC)N(C)C(=O)C2(CCCC2)NC(=O)[C@H](Cc2ccccc2Cl)N(CC)C(=O)[C@H](CCc2ccc(C(F)(F)F)c(Cl)c2)NC(=O)CN(C)C(=O)[C@H](Cc2ccc(C)cc2)N(C)C(=O)[C@@H]2CCN2C(=O)[C@H](C)N(C)C1=O [Compound 2163] ([NMeA]I[NMeA][Aze][NMePhe(4-Me)][Sar][hPhe(3-Cl-4-CF3)][NEtPhe(2-Cl)][Ac5c][NMeI][NMeD]-NMe2; lactam N-11) , report its measured IC50.
Result: 0.073

###

molecular target: protein-protein interaction between Kras and SOS1 (biotin-tagged human Kras loaded with GDP, His-tagged human SOS1) (Homo sapiens (Human), UniProt P01116, G12D); assay: Protein-protein interaction inhibition between Kras and SOS1 (KrasG12D-SOS PPI) using AlphaScreen; assay type: biochemical; conditions: AlphaScreen; biotin-tagged human Kras loaded with GDP, His-tagged human SOS1; read-out: KRAS G12D-SOS PPI IC50;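 further: kras produced in E. coli, Ni-coupled donor beads and streptavidin acceptor beads, excitation 680 nm with emission detected at 520–620 nm via singlet oxygen transfer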
Numbered stars: 1 amine (or outer) side, 2 acyl side, 3 side chain; on linkers, the order of the positions; unused ones are H or OH. Bridge positions count the residues as written; N and C are the ends. Square brackets hold non-standard residues; d marks the D form. Peptide text beside a SMILES is read from it. * marks the point of attachment. hPhe(3,5-F2-4-CF3) = N[C@@H](CCc1cc(F)c(C(F)(F)F)c(F)c1)C(=O)O; hPhe(3-Cl-4-CF3) = N[C@@H](CCc1ccc(C(F)(F)F)c(Cl)c1)C(=O)O; hPhe(3-F,4-CF3) = N[C@@H](CCc1ccc(C(F)(F)F)c(F)c1)C(=O)O; NMePhe(4-CF3) = CN[C@@H](Cc1ccc(C(F)(F)F)cc1)C(=O)O; NEtPhe(2-Cl) = CCN[C@@H](Cc1ccccc1Cl)C(=O)O; NMePhe(4-Me) = CN[C@@H](Cc1ccc(C)cc1)C(=O)O; NMedβ3hAla = C[C@H](CC(=O)[*:2])N(C)[*:1]; NMeGly(cPent) = CN[C@H](C(=O)O)C1CCCC1; NMeCha = CN[C@@H](CC1CCCCC1)C(=O)O; Hyp = O=C(O)[C@@H]1C[C@@H](O)CN1; NMeChg = CN[C@H](C(=O)O)C1CCCCC1; NMeD = CN[C@@H](CC(=O)O)C(=O)O; NMeL = CN[C@@H](CC(C)C)C(=O)O; NMeV = CN[C@H](C(=O)O)C(C)C; NMeA = CN[C@@H](C)C(=O)O; Piperidide = C1CCN(*)CC1; Pyrrolidide = C1CCN(*)C1; Ac5c = NC1(C(=O)O)CCCC1; Aze = O=C(O)[C@@H]1CCN1; Sar = CNCC(=O)O
Recorded pIC50, one value per entry.
Lab note: report pIC50 as minus log10 of the concentration in molar units, number only.

CCO[C@@H]1C[C@H]2C(=O)NC3(CCCC3)C(=O)N(C)[C@@H](C3CCCC3)C(=O)N(C)[C@H](C)CC(=O)N(C)[C@@H](CC(C)C)C(=O)N[C@@H]([C@@H](C)CC)C(=O)N(C)CC(=O)N(C)CC(=O)N(C)[C@@H](Cc3ccc(C(F)(F)F)cc3)C(=O)N(C)CC(=O)N[C@@H](CCc3cc(F)c(C(F)(F)F)c(F)c3)C(=O)N2C1 [Compound 66] (cyclo([Ac5c][NMeGly(cPent)][NMedβ3hAla][NMeL]I[Sar][Sar][NMePhe(4-CF3)][Sar][hPhe(3,5-F2-4-CF3)][Hyp](Et)))	8.44
CC[C@H](C)[C@@H]1NC(=O)[C@H](CC(C)C)N(C)C(=O)C[C@@H](C(=O)N(C)C)N(C)C(=O)[C@H](C2CCCCC2)N(C)C(=O)C2(CCCC2)NC(=O)[C@@H]2CCCN2C(=O)[C@H](CCc2ccc(C(F)(F)F)c(Cl)c2)NC(=O)CN(C)C(=O)[C@H](Cc2ccc(C)cc2)N(C)C(=O)[C@@H]2CCN2C(=O)[C@H](C)N(C)C1=O [Compound 1685] ([NMeL]I[NMeA][Aze][NMePhe(4-Me)][Sar][hPhe(3-Cl-4-CF3)]P[Ac5c][NMeChg][NMeD]-NMe2; lactam N-11)	9.22
CC[C@H](C)[C@@H]1NC(=O)[C@H](CC(C)C)N(C)C(=O)C[C@@H](C(=O)N2CCCC2)N(C)C(=O)[C@H](C2CCCC2)N(C)C(=O)C2(CCCC2)NC(=O)[C@@H]2CCCN2C(=O)[C@H](CCc2ccc(C(F)(F)F)c(F)c2)NC(=O)CN(C)C(=O)[C@H](CC2CCCCC2)N(C)C(=O)[C@@H]2CCN2C(=O)[C@H](C)N(C)C1=O [Compound 1091] ([NMeL]I[NMeA][Aze][NMeCha][Sar][hPhe(3-F,4-CF3)]P[Ac5c][NMeGly(cPent)][NMeD]-Pyrrolidide; lactam N-11)	9.00

Please find the next compound below.
Task: Given the entry CC[C@H](C)[C@@H]1NC(=O)[C@H](C)N(C)C(=O)C[C@@H](C(=O)N2CCCCC2)N(C)C(=O)[C@H](C(C)C)N(C)C(=O)C2(CCCC2)NC(=O)[C@H](Cc2ccccc2Cl)N(CC)C(=O)[C@H](CCc2ccc(C(F)(F)F)c(Cl)c2)NC(=O)CN(C)C(=O)[C@H](CC2CCCCC2)N(C)C(=O)CN(C)C(=O)CN(C)C1=O [Compound 2161] ([NMeA]I[Sar][Sar][NMeCha][Sar][hPhe(3-Cl-4-CF3)][NEtPhe(2-Cl)][Ac5c][NMeV][NMeD]-Piperidide; lactam N-11) , report its measured pIC50.
Result: 6.32

From: patent US20240148821A1
